test system: soybean (Glycine max); assay: Test C greenhouse herbicide test, pre- and postemergence; type: in vivo; conditions: Preemergence, 250 g ai/ha; scale 0 to 100, 0 no effect, 100 complete control
Measurement Type: Soybean plant response rating
Please reply with the value in numeric form only.

Below are worked cases with known answers.
>>> value_reported("Cc1nn(C)c(=O)c(-c2c(C)sc3ccc(C(F)(F)F)cc23)c1O")
0
>>> value_reported("CCc1sc2c(C)cc(C)cc2c1-c1c(O)c(C)nn(C)c1=O")
0

Please find the next molecule below.
Q: Supply Soybean plant response rating value. Item: `Cn1nc(Br)c(O)c(-c2cccc3ccccc23)c1=O`
Result: 30
